Data provenance: the supplement of paper PMC5998384

The entries below come with measured melting temperature values attached.
- Test system: HeLa Kyoto
- Protocol Text: melting temperature (median over replicates), in situ; higher = more thermally stable
- Stated Conditions: cell cycle stage: G1/S
Could you kindly put the unit after your number?

MSLQWTAVATFLYAEVFVVLLLCIPFISPKRWQKIFKSRLVELLVSYGNTFFVVLIVILVLLVIDAVREIRKYDDVTEKVNLQNNPGAMEHFHMKLFRAQRNLYIAGFSLLLSFLLRRLVTLISQQATLLASNEAFKKQAESASEAAKKYMEENDQLKKGAAVDGGKLDVGNAEVKLEEENRSLKADLQKLKDELASTKQKLEKAENQVLAMRKQSEGLTKEYDRLLEEHAKLQAAVDGPMDKKEE [BCAP31] :: 55.5 °C

Please give the measured melting temperature for this sequence: MEAQAQGLLETEPLQGTDEDAVASADFSSMLSEEEKEELKAELVQLEDEITTLRQVLSAKERHLVEIKQKLGMNLMNELKQNFSKSWHDMQTTTAYKKTHETLSHAGQKATAAFSNVGTAISKKFGDMSYSIRHSISMPAMRNSPTFKSFEERVETTVTSLKTKVGGTNPNGGSFEEVLSSTAHASAQSLAGGSRRTKEEELQC [TPD52L1]
54.4 °C

Please give the measured melting temperature for this sequence: MIKLFSLKQQKKEEESAGGTKGSSKKASAAQLRIQKDINELNLPKTCDISFSDPDDLLNFKLVICPDEGFYKSGKFVFSFKVGQGYPHDPPKVKCETMVYHPNIDLEGNVCLNILREDWKPVLTINSIIYGLQYLFLEPNPEDPLNKEAAEVLQNNRRLFEQNVQRSMRGGYIGSTYFERCLK [UBE2M]
51.1 °C

---

The entries below come with measured thermal stability score values attached.
- Tested on: HeLa Kyoto
- Protocol Text: thermal stability score vs G1/S (z-score of summed log2 fold changes over temperatures); higher = more thermally stable than in G1/S
- Stated Conditions: cell cycle stage: mitosis
Give the figure only, with no unit attached.

Lab request: please report thermal stability score under test system HeLa Kyoto for MSRHEGVSCDACLKGNFRGRRYKCLICYDYDLCASCYESGATTTRHTTDHPMQCILTRVDFDLYYGGEAFSVEQPQSFTCPYCGKMGYTETSLQEHVTSEHAETSTEVICPICAALPGGDPNHVTDDFAAHLTLEHRAPRDLDESSGVRHVRRMFHPGRGLGGPRARRSNMHFTSSSTGGLSSSQSSYSPSNREAMDPIAELLSQLSGVRRSAGGQLNSSGPSASQLQQLQMQLQLERQHAQAARQQLETARNATRRTNTSSVTTTITQSTATTNIANTESSQQTLQNSQFLLTRLNDPKMSETERQSMESERADRSLFVQELLLSTLVREESSSSDEDDRGEMADFGAMGCVDIMPLDVALENLNLKESNKGNEPPPPPL [KCMF1]
-1.41

Lab request: please report thermal stability score under test system HeLa Kyoto for MNSNVENLPPHIIRLVYKEVTTLTADPPDGIKVFPNEEDLTDLQVTIEGPEGTPYAGGLFRMKLLLGKDFPASPPKGYFLTKIFHPNVGANGEICVNVLKRDWTAELGIRHVLLTIKCLLIHPNPESALNEEAGRLLLENYEEYAARARLLTEIHGGAGGPSGRAEAGRALASGTEASSTDPGAPGGPGGAEGPMAKKHAGERDKKLAAKKKTDKKRALRRL [UBE2S]
0.461

Lab request: please report thermal stability score under test system HeLa Kyoto for MFPFYSCWRTGLLLLLLAVAVRESWQTEEKTCDLVGEKGKESEKELALVKRLKPLFNKSFESTVGQGSDTYIYIFRVCREAGNHTSGAGLVQINKSNGKETVVGRLNETHIFNGSNWIMLIYKGGDEYDNHCGKEQRRAVVMISCNRHTLADNFNPVSEERGKVQDCFYLFEMDSSLACSPEISHLSVGSILLVTFASLVAVYVVGGFLYQRLVVGAKGMEQFPHLAFWQDLGNLVADGCDFVCRSKPRNVPAAYRGVGDDQLGEESEERDDHLLPM [M6PR]
-2.67

Lab request: please report thermal stability score under test system HeLa Kyoto for MLKPALEPRGGFSFENCQRNASLERVLPGLKVPHARKTGTTIAGLVFQDGVILGADTRATNDSVVADKSCEKIHFIAPKIYCCGAGVAADAEMTTRMVASKMELHALSTGREPRVATVTRILRQTLFRYQGHVGASLIVGGVDLTGPQLYGVHPHGSYSRLPFTALGSGQDAALAVLEDRFQPNMTLEAAQGLLVEAVTAGILGDLGSGGNVDACVITKTGAKLLRTLSSPTEPVKRSGRYHFVPGTTAVLTQTVKPLTLELVEETVQAMEVE [PSMB10]
0.56

Lab request: please report thermal stability score under test system HeLa Kyoto for MTVARPSVPAALPLLGELPRLLLLVLLCLPAVWGDCGLPPDVPNAQPALEGRTSFPEDTVITYKCEESFVKIPGEKDSVICLKGSQWSDIEEFCNRSCEVPTRLNSASLKQPYITQNYFPVGTVVEYECRPGYRREPSLSPKLTCLQNLKWSTAVEFCKKKSCPNPGEIRNGQIDVPGGILFGATISFSCNTGYKLFGSTSSFCLISGSSVQWSDPLPECREIYCPAPPQIDNGIIQGERDHYGYRQSVTYACNKGFTMIGEHSIYCTVNNDEGEWSGPPPECRGKSLTSKVPPTVQKPTTVNVPTTEVSPTSQKTTTKTTTPNAQATRSTPVSRTTKHFHETTPNKGSGTTSGTTRLLSGHTCFTLTGLLGTLVTMGLLT [CD55]
-1.77

Lab request: please report thermal stability score under test system HeLa Kyoto for MKSLVLLLCLAQLWGCHSAPHGPGLIYRQPNCDDPETEEAALVAIDYINQNLPWGYKHTLNQIDEVKVWPQQPSGELFEIEIDTLETTCHVLDPTPVARCSVRQLKEHAVEGDCDFQLLKLDGKFSVVYAKCDSSPDSAEDVRKVCQDCPLLAPLNDTRVVHAAKAALAAFNAQNNGSNFQLEEISRAQLVPLPPSTYVEFTVSGTDCVAKEATEAAKCNLLAEKQYGFCKATLSEKLGGAEVAVTCMVFQTQPVSSQPQPEGANEAVPTPVVDPDAPPSPPLGAPGLPPAGSPPDSHVLLAAPPGHQLHRAHYDLRHTFMGVVSLGSPSGEVSHPRKTRTVVQPSVGAAAGPVVPPCPGRIRHFKV [AHSG]
-0.632

Lab request: please report thermal stability score under test system HeLa Kyoto for MADHSFSDGVPSDSVEAAKNASNTEKLTDQVMQNPRVLAALQERLDNVPHTPSSYIETLPKAVKRRINALKQLQVRCAHIEAKFYEEVHDLERKYAALYQPLFDKRREFITGDVEPTDAESEWHSENEEEEKLAGDMKSKVVVTEKAAATAEEPDPKGIPEFWFTIFRNVDMLSELVQEYDEPILKHLQDIKVKFSDPGQPMSFVLEFHFEPNDYFTNSVLTKTYKMKSEPDKADPFSFEGPEIVDCDGCTIDWKKGKNVTVKTIKKKQKHKGRGTVRTITKQVPNESFFNFFNPLKASGDGESLDEDSEFTLASDFEIGHFFRERIVPRAVLYFTGEAIEDDDNFEEGEEGEEEELEGDEEGEDEDDAEINPKV [NAP1L4]
0.831

Lab request: please report thermal stability score under test system HeLa Kyoto for MEIPPTNYPASRAALVAQNYINYQQGTPHRVFEVQKVKQASMEDIPGRGHKYHLKFAVEEIIQKQVKVNCTAEVLYPSTGQETAPEVNFTFEGETGKNPDEEDNTFYQRLKSMKEPLEAQNIPDNFGNVSPEMTLVLHLAWVACGYIIWQNSTEDTWYKMVKIQTVKQVQRNDDFIELDYTILLHNIASQEIIPWQMQVLWHPQYGTKVKHNSRLPKEVQLE [LXN]
0.0486

Lab request: please report thermal stability score under test system HeLa Kyoto for MLRLVPTGARAIVDMSYARHFLDFQGSAIPQAMQKLVVTRLSPNFREAVTLSRDCPVPLPGDGDLLVRNRFVGVNASDINYSAGRYDPSVKPPFDIGFEGIGEVVALGLSASARYTVGQAVAYMAPGSFAEYTVVPASIATPVPSVKPEYLTLLVSGTTAYISLKELGGLSEGKKVLVTAAAGGTGQFAMQLSKKAKCHVIGTCSSDEKSAFLKSLGCDRPINYKTEPVGTVLKQEYPEGVDVVYESVGGAMFDLAVDALATKGRLIVIGFISGYQTPTGLSPVKAGTLPAKLLKKSASVQGFFLNHYLSKYQAAMSHLLEMCVSGDLVCEVDLGDLSPEGRFTGLESIFRAVNYMYMGKNTGKIVVELPHSVNSKL [ZADH2]
1.57
